The following compounds are listed with their measured pIC50 values.
- study.system: human TRPV3 (Homo sapiens)
- Construct: expressed in transfected cells
- Sequence (Q8NET8 whole entry): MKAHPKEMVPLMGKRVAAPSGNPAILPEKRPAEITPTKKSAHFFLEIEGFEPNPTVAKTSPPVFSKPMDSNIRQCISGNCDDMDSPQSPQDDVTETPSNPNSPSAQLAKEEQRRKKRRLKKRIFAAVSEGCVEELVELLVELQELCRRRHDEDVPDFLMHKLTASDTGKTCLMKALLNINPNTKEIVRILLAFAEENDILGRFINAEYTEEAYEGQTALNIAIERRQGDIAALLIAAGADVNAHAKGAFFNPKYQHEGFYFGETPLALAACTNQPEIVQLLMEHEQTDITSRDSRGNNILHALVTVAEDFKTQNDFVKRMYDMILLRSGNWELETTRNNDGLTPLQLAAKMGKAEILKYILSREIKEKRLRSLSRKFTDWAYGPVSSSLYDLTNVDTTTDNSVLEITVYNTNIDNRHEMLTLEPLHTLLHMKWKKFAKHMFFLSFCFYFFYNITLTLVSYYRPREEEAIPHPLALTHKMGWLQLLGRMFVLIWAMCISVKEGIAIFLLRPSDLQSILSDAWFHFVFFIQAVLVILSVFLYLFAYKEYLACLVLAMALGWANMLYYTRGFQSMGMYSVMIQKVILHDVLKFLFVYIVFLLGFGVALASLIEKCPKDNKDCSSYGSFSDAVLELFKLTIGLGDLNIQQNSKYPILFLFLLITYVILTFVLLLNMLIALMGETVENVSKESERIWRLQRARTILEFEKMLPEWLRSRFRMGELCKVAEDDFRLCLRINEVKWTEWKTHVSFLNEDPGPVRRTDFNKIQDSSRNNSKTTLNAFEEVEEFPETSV
- protocol: In vitro antagonism of recombinant human TRPV3 activation (FLIPR Tetra calcium assay)
- Format: cell-based
- test.parameters: HEK293 cells stably expressing human TRPV3; agonist 2-APB at 80 μM; actual measured value shown parenthetically; in most cases average of at least two runs; read-out: IC50
pIC50: −log10 of the molar value.
metric.name: pIC50

| compound | inequality.sign | recorded.number |
| --- | --- | --- |
| O[C@H](c1ccccn1)C1(c2ccnc(C(F)(F)F)c2)CCC1 | = | 6.15 |
| CC1(O)CC(c2cccc(C(F)(F)F)c2)(C(O)c2ccccn2)C1 (single isomer, unassigned) [Example 236] | = | 6.12 |
| OC(c1ccccn1)C1(c2nc3ccccc3s2)CCC1 (stereo not drawn) | = | 5.64 |
| OC(c1ccccn1)C1(C2CCC(C(F)(F)F)CC2)CCC1 (stereo not drawn) | = | 5.71 |
| O=C1CC(c2cc(C(F)(F)F)ccn2)([C@H](O)c2ccccn2)C1 | = | 5.71 |
| NC1CCCC1C(O)C1(c2ccccc2OC(F)(F)F)CCC1 (stereo not drawn) | = | 5.91 |
| Cn1c(C2(C(O)c3ccccn3)CCC2)nc2ccccc21 (stereo not drawn) | = | 4.72 |
| OC1CC(c2ccc(Cl)c(Cl)c2)(C(O)c2ncccn2)C1 (single isomer, unassigned) [Example 312] | = | 5.71 |
| CC(c1cccc(C(F)(F)F)c1)C1(C(O)c2ccccn2)CCC1 (stereo not drawn) | = | 4.66 |
| ON=C1CC(c2ccc(OC(F)(F)F)cc2)([C@H](O)c2ccccn2)C1 (stereo partly drawn) | = | 5.93 |
| O[C@H](c1ccccn1)C1(c2ccc(C(F)(F)F)cc2)CCC1 | = | 6.36 |
| OC(c1ccccn1)C1(c2ccccc2)CCOCC1 (stereo not drawn) | = | 5.12 |
| N[C@@H]1CCC[C@H]1[C@@H](O)C1(c2ccc(OC(F)(F)F)cc2)CCC1 | = | 5.68 |
| OC(C1CCc2cccnc21)C1(c2ccccc2C(F)(F)F)CCC1 (stereo not drawn) [Example 198] | < | 4.70 |
| OC1CC(c2ccc(Cl)c(Cl)c2)(C(O)c2ccccn2)C1 (single isomer, unassigned) [Example 118] | = | 6.66 |
| CC(c1ccc(C(F)(F)F)cc1)C1(C(O)c2ccccn2)CCC1 (stereo not drawn) | = | 5.76 |
| OC(c1ccccn1)C1(C2=CCCC(C(F)(F)F)C2)CCC1 (stereo not drawn) | = | 5.90 |
| OC(CC1(c2cccc(F)c2)CCC1)c1ccccn1 (stereo not drawn) | = | 5.67 |
